Entries and their Ratio Ki
- Species on record: Rattus norvegicus
- test: Selectivity ratio of Ki for alpha7 nicotinic acetylcholine receptor to Ki for alpha4beta2 nicotinic acetylcholine receptor in rat brain minus cerebellum membrane
- Assay type: tissue-based
property: Ratio Ki

input smiles	obs value
CCN1C[C@@H]2CN(c3ccc(-c4ccccc4)nn3)C[C@@H]2C1	> 300
c1ccc(N2C[C@H]3CNC[C@H]3C2)nc1	> 38
CN1C[C@@H]2CN(c3ccc(-c4ccc5[nH]ccc5c4)nn3)C[C@@H]2C1	> 400000
c1ccc(-c2ccc(N3C[C@H]4CNC[C@H]4C3)nc2)cc1	> 3300
CN1C[C@@H]2CN(c3ccc(-c4ccccc4)cc3)C[C@@H]2C1	> 8300
Oc1cncc(N2C[C@H]3CNC[C@H]3C2)c1	> 13000
c1ccc(COc2cncc(N3C[C@H]4CNC[C@H]4C3)c2)cc1	> 170000
COc1ccc(-c2ccc(N3C[C@H]4CN(C)C[C@H]4C3)nn2)cc1	> 4500
c1ccc(-c2ccc(N3C[C@H]4CNC[C@H]4C3)cc2)cc1	> 350
CC(C)Oc1cncc(N2C[C@H]3CNC[C@H]3C2)c1	> 200000
CN1C[C@@H]2CN(c3cncc(-c4ccccc4)c3)C[C@@H]2C1	> 190
